Cited source for all entries: patent US5225528A

# TEST_SYSTEM: uterine OT receptors (Rattus norvegicus, UniProt P70536)
# Construct: from tissue; host or cells: uterus of DES-treated rats, crude membranes
# Sequence (P70536 whole entry): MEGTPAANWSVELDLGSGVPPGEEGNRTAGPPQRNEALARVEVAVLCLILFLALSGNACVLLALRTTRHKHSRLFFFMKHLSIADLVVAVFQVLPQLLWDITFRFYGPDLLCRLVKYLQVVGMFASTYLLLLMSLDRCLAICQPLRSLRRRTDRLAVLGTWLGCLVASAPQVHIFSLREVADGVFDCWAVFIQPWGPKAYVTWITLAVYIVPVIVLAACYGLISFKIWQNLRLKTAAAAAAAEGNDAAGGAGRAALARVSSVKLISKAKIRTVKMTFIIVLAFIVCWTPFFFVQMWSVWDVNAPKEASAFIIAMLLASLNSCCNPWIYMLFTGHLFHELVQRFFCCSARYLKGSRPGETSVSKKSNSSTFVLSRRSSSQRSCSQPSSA
# METHOD: [^3 H]OT binding to uterine OT receptors, crude membrane preparation of uteri from DES-treated rats
# TEST_CONTEXT: rat uterus membranes, 1 nM [^3 H]OT; read-out: Receptor Binding Results IC50 (nM) [^3 H]OT
Square brackets hold non-standard residues; d marks the D form. Peptide text beside a SMILES is read from it. dPhe(4-NO2) = N[C@H](Cc1ccc([N+](=O)[O-])cc1)C(=O)O; dNMehPhe = CN[C@H](CCc1ccccc1)C(=O)O; NMeI = CC[C@H](C)[C@H](NC)C(=O)O; dNMeF = CN[C@H](Cc1ccccc1)C(=O)O; dCha = N[C@H](CC1CCCCC1)C(=O)O; Pip = O=C(O)[C@@H]1CCCCN1; dPip = O=C(O)[C@H]1CCCCN1
RECORDED_ENDPOINT: log10 IC50 (log10 of the value in nM)
Reminder: these figures are log10 of reported IC50, in nM before transformation.

MOLECULE	log10 IC50
CC[C@H](C)[C@@H]1NC(=O)[C@@H](Cc2ccccc2)NC(=O)[C@@H]2CCCN2C(=O)[C@@H](Cc2ccc([N+](=O)[O-])cc2)NC(=O)[C@@H]2CCCCN2C(=O)[C@H]2CCCCN2C1=O [Example 47] (cyclo(I[dPip][Pip][dPhe(4-NO2)]P[dF]))	2.79
CC[C@H](C)[C@H]1C(=O)N2CCCC[C@@H]2C(=O)N2CCCC[C@H]2C(=O)N(C)[C@H](Cc2ccccc2)C(=O)N2CCC[C@H]2C(=O)N(C)[C@H](CCc2ccccc2)C(=O)N1C [Example 166] (cyclo([NMeI][dPip][Pip][dNMeF]P[dNMehPhe]))	4.36

Which log10 IC50 value is on record for CC[C@H](C)[C@@H]1NC(=O)[C@@H](CC2CCCCC2)NC(=O)[C@@H]2CCCN2C(=O)[C@@H](Cc2ccccc2)NC(=O)[C@@H]2CCCN2C(=O)[C@H]2CCCN2C1=O [Example 55] (cyclo([dCha]I[dP]P[dF]P)) ?
3.40
